Origin of values: PubChem BioAssay

- EXPERIMENT_NOTES: differential killing of epithelial or mesenchymal cells, primary screen, imaging, PC-3E GFP, TEM4-18 mCherry, co-culture (AID 1345086);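 also: cells exposed to compound for 72 h before imaging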
- SETTINGS: imaging cell counts, measured here: mesenchymal TEM4-18 mCherry cell survival, at 1 µM
Recorded normalised cell number for the following compounds

compound=CC[C@@H](CO)NC(=O)[C@@H]1C=C2c3cccc4[nH]cc(c34)C[C@H]2N(C)C1 recorded_value=0.87
compound="CC1(C)C(=O)[C@@H]2O[C@@H]2[C@@]2(C)C1C[C@@H](O)[C@]1(C)C2CC[C@@]2(C)[C@H](c3ccoc3)OC(=O)C3OC321 (some centres undefined)" recorded_value=1.01
compound=COc1cc2c(cc1-c1cc3cc4ccoc4cc3oc1=O)OCO2 recorded_value=0.87
compound=CC(C)(O)[C@@H]1[C@H]2OC(=O)[C@@H]1[C@]1(O)C[C@H]3O[C@]34C(=O)O[C@H]2[C@]14C recorded_value=0.99
compound=CCCCCCCCCc1ccc(O)cc1 recorded_value=1.14
compound="C#CCN(C)C(C)Cc1ccccc1 (centres undefined)" recorded_value=1.07

Lab note: [N-]=[N+]=CC(=O)OCC(N)C(=O)O (centres undefined) gave normalised cell number of 1.16

Noted for CNC(=O)Oc1ccccc1OC(C)C : its normalised cell number reads 1.05

Note to self: normalised cell number recorded for CN1CC(CNC(=O)OCc2ccccc2)CC2c3cccc4c3c(cn4C)CC21 (centres undefined) was 0.81

According to the records, this compound COC(=O)[C@@H]1C[C@H](OC(C)=O)C(=O)[C@H]2[C@@]1(C)CC[C@H]1C(=O)O[C@H](c3ccoc3)C[C@]21C displays normalised cell number of 0.87

Item: CC(C)CC(N(C)C)C1(c2ccc(Cl)cc2)CCC1 (centres undefined) | normalised cell number: 1.02

// recorded normalised cell number for ClC1C(Cl)C(Cl)C(Cl)C(Cl)C1Cl (centres undefined) : 1.47
